compounds and their reported Bliss excess
# System: NCI-H23 (Lung Adenocarcinoma)
# METHOD NOTES: Bliss excess, mean over the matrix (fraction); higher = more synergy

COMPOUND	Bliss excess
COc1nnc2ccc(N3CCC(c4ccc(OCCN5CCN(C)C(=O)[C@H]5C)cc4)CC3)nn12 [AZD5153] + CN(CC[C@H](CSC1=CC=CC=C1)NC2=C(C=C(C=C2)S(=O)(=O)NC(=O)C3=CC=C(C=C3)N4CCC(CC4)[C@H](C5=CC=CC=C5C6=CC=C(C=C6)Cl)O)S(=O)(=O)C(F)(F)F)CCO [AZD4320] (first compound max 1 µM, 7x7, partner max 1 µM)	-0.0027
Cc1c2c(nn1C)CSCc1cc(n(C)n1)CSc1cc(c3ccccc3c1)OCCCc1c(C(=O)O)n(C)c3c-2c(Cl)ccc13 [AZD5991] + CC1(C)CCC(CN2CCN(c3ccc(C(=O)NS(=O)(=O)c4ccc(NCC5CCOCC5)c([N+](=O)[O-])c4)c(Oc4cnc5[nH]ccc5c4)c3)CC2)=C(c2ccc(Cl)cc2)C1 [Venetoclax] (first compound max 1 µM, 7x7, partner max 1 µM)	-0.0077
C=CCn1c(=O)c2cnc(Nc3ccc(N4CCN(C)CC4)cc3)nc2n1-c1cccc(C(C)(C)O)n1 [AZD1775] + C1CN(CCC1(C(=O)N[C@@H](CCO)C2=CC=C(C=C2)Cl)N)C3=NC=NC4=C3C=CN4 [Capivasertib] (first compound max 3 µM, partner max 3 µM)	-0.0135
CS(=O)(=O)CCNCc1ccc(-c2ccc3ncnc(Nc4ccc(OCc5cccc(F)c5)c(Cl)c4)c3c2)o1 [Lapatinib] + C[C@@H](Oc1cc(-c2cnn(C3CCNCC3)c2)cnc1N)c1c(Cl)ccc(F)c1Cl [Crizotinib] (first compound max 10 µM, 7x7, partner max 10 µM)	-0.0265
CN(CCO)CC[C@H](CSc1ccccc1)Nc1ccc(S(=O)(=O)NC(=O)c2ccc(N3CCC([C@@H](O)c4ccccc4-c4ccc(Cl)cc4)CC3)cc2)cc1S(=O)(=O)C(F)(F)F [AZD4320] + Cn1cnc2c(F)c(Nc3ccc(Br)cc3Cl)c(C(=O)NOCCO)cc21 [Selumetinib] (first compound max 1 µM, 7x7, partner max 3 µM)	0.0703
Cn1cnc2c(F)c(Nc3ccc(Br)cc3Cl)c(C(=O)NOCCO)cc21 [Selumetinib] + C=CCn1c(=O)c2cnc(Nc3ccc(N4CCN(C)CC4)cc3)nc2n1-c1cccc(C(C)(C)O)n1 [AZD1775] (first compound max 10 µM, partner max 1 µM)	0.0223

* * *

Overview of recorded combination Emax for various compounds
# Tested on: MKN45 (Gastric Carcinoma)
# METHOD NOTES: combination Emax (second highest fraction inhibited in the dose matrix, 72 h); higher = more inhibition; extreme values may be limits of the assay
ENDPOINT: combination Emax

COMPOUND	ASSAY SYSTEM	REPORTED VALUE
CN(C)CCCOc1ccc(-c2ccc3ncc4c(c3c2)n(C2CCOCC2)c(=O)n4C)cn1 [AZD0156] + C=CCn1c(=O)c2cnc(Nc3ccc(N4CCN(C)CC4)cc3)nc2n1-c1cccc(C(C)(C)O)n1 [AZD1775] (first compound max 1 µM, partner max 1 µM)	MKN45 (Gastric Carcinoma)	0.701
CN(CCO)CC[C@H](CSc1ccccc1)Nc1ccc(S(=O)(=O)NC(=O)c2ccc(N3CCC([C@@H](O)c4ccccc4-c4ccc(Cl)cc4)CC3)cc2)cc1S(=O)(=O)C(F)(F)F [AZD4320] + CN(C)CCCOc1ccc(-c2ccc3ncc4c(c3c2)n(C2CCOCC2)c(=O)n4C)cn1 [AZD0156] (first compound max 1 µM, 7x7, partner max 1 µM)	MKN45 (Gastric Carcinoma)	0.316
COc1nnc2ccc(N3CCC(c4ccc(OCCN5CCN(C)C(=O)[C@H]5C)cc4)CC3)nn12 [AZD5153] + CCN(CCO)CCCOc1ccc2c(Nc3cc(CC(=O)Nc4cccc(F)c4)[nH]n3)ncnc2c1 [AZD2811] (first compound max 1 µM, 7x7, partner max 1 µM)	MKN45 (Gastric Carcinoma)	0.556
N#Cc1cnc(Nc2cc(NC[C@H]3CNCCO3)c(C(F)(F)F)cn2)cn1 [SRA737] + Nc1ccn([C@@H]2O[C@H](CO)[C@@H](O)C2(F)F)c(=O)n1 [Gemcitabine] (first compound max 10 µM, 7x7, partner max 0.3 µM)	MKN45 (Gastric Carcinoma)	0.761
Cc1c2c(nn1C)CSCc1cc(n(C)n1)CSc1cc(c3ccccc3c1)OCCCc1c(C(=O)O)n(C)c3c-2c(Cl)ccc13 [AZD5991] + CC(=O)O[C@H]1C(=O)[C@@]2(C)[C@H]([C@H](OC(=O)c3ccccc3)[C@]3(O)C[C@H](OC(=O)[C@H](O)[C@@H](NC(=O)c4ccccc4)c4ccccc4)C(C)=C1C3(C)C)[C@]1(OC(C)=O)CO[C@@H]1C[C@@H]2O [Paclitaxel] (first compound max 1 µM, 7x7, partner max 3 µM)	MKN45 (Gastric Carcinoma)	0.709
Cc1nc(Nc2ncc(C(=O)Nc3c(C)cccc3Cl)s2)cc(N2CCN(CCO)CC2)n1 [Dasatinib] + CC(=O)Nc1cccc(-n2c(=O)n(C3CC3)c(=O)c3c(Nc4ccc(I)cc4F)n(C)c(=O)c(C)c32)c1 [Trametinib] (first compound max 2 µM, 7x7, partner max 1 µM)	MKN45 (Gastric Carcinoma)	0.79
Cn1cnc2c(F)c(Nc3ccc(Br)cc3Cl)c(C(=O)NOCCO)cc21 [Selumetinib] + CC(C)n1c(=O)n(C)c2cnc3cc(F)c(-c4ccc(OCCCN5CCCCC5)nc4)cc3c21 [AZD1390] (first compound max 10 µM, 7x7, partner max 0.3 µM)	MKN45 (Gastric Carcinoma)	0.61

* * *

# Test system: GB-1 (Glioblastoma)
# METHOD NOTES: Bliss excess, mean over the matrix (fraction); higher = more synergy
Label scheme for Bliss excess: lower than -0.03 is Not met, -0.03 and above is Met.

COMPOUND	GROUP LABEL
COc1cccc(OCCCN)c1-c1cc(Nc2cnc(C#N)cn2)n[nH]1 [Prexasertib] + CCc1c2c(nc3ccc(O)cc13)-c1cc3c(c(=O)n1C2)COC(=O)[C@]3(O)CC [SN-38] (first compound max 1 µM, 7x7, partner max 0.3 µM)	Not met
CC1(C)CCC(CN2CCN(c3ccc(C(=O)NS(=O)(=O)c4ccc(NCC5CCOCC5)c([N+](=O)[O-])c4)c(Oc4cnc5[nH]ccc5c4)c3)CC2)=C(c2ccc(Cl)cc2)C1 [Venetoclax] + C=CCn1c(=O)c2cnc(Nc3ccc(N4CCN(C)CC4)cc3)nc2n1-c1cccc(C(C)(C)O)n1 [AZD1775] (first compound max 1 µM, partner max 1 µM)	Met
COc1nnc2ccc(N3CCC(c4ccc(OCCN5CCN(C)C(=O)[C@H]5C)cc4)CC3)nn12 [AZD5153] + CN(CC[C@H](CSC1=CC=CC=C1)NC2=C(C=C(C=C2)S(=O)(=O)NC(=O)C3=CC=C(C=C3)N4CCC(CC4)[C@H](C5=CC=CC=C5C6=CC=C(C=C6)Cl)O)S(=O)(=O)C(F)(F)F)CCO [AZD4320] (first compound max 1 µM, 7x7, partner max 1 µM)	Met
Cn1cnc2c(F)c(Nc3ccc(Br)cc3Cl)c(C(=O)NOCCO)cc21 [Selumetinib] + C[C@@H]1COCCN1C2=NC(=NC(=C2)C3(CC3)[S@](=N)(=O)C)C4=C5C=CNC5=NC=C4 [AZD6738] (first compound max 10 µM, 7x7, partner max 10 µM)	Not met
CC(=O)c1c(C)c2cnc(Nc3ccc(N4CCNCC4)cn3)nc2n(C2CCCC2)c1=O [Palbociclib] + Cc1c2c(nn1C)CSCc1cc(n(C)n1)CSc1cc(c3ccccc3c1)OCCCc1c(C(=O)O)n(C)c3c-2c(Cl)ccc13 [AZD5991] (first compound max 10 µM, 7x7, partner max 1 µM)	Not met

* * *

# Test system: PC-3_[JPC-3] (Lung Adenocarcinoma)
# METHOD NOTES: combination Emax (second highest fraction inhibited in the dose matrix, 72 h); higher = more inhibition; extreme values may be limits of the assay
Consider the following molecules and their measured combination Emax readings.
ENDPOINT: combination Emax

MOLECULE	REPORTED VALUE
COc1cccc(OCCCN)c1-c1cc(Nc2cnc(C#N)cn2)n[nH]1 [Prexasertib] + C=CCn1c(=O)c2cnc(Nc3ccc(N4CCN(C)CC4)cc3)nc2n1-c1cccc(C(C)(C)O)n1 [AZD1775] (first compound max 1 µM, partner max 1 µM)	0.588
C[C@@H]1COCCN1c1cc(C2([S@](C)(=N)=O)CC2)nc(-c2ccnc3[nH]ccc23)n1 [AZD6738] + C1CC(C1)(C(=O)[O-])C(=O)[O-].N.N.[Pt+2] [Carboplatin] (first compound max 10 µM, 7x7, partner max 10 µM)	0.294

* * *

Reported Bliss excess values are given for each entry in this list.
# Tested on: OPM-2 (Plasma Cell Myeloma)
# METHOD NOTES: Bliss excess, mean over the matrix (fraction); higher = more synergy

COMPOUND	Bliss excess
CN(CCO)CC[C@H](CSc1ccccc1)Nc1ccc(S(=O)(=O)NC(=O)c2ccc(N3CCC([C@@H](O)c4ccccc4-c4ccc(Cl)cc4)CC3)cc2)cc1S(=O)(=O)C(F)(F)F [AZD4320] + CC(=O)O[C@H]1C(=O)[C@@]2(C)[C@H]([C@H](OC(=O)c3ccccc3)[C@]3(O)C[C@H](OC(=O)[C@H](O)[C@@H](NC(=O)c4ccccc4)c4ccccc4)C(C)=C1C3(C)C)[C@]1(OC(C)=O)CO[C@@H]1C[C@@H]2O [Paclitaxel] (first compound max 1 µM, 7x7, partner max 3 µM)	0.023
Cc1cc2ncnn2cc1Nc1ncc2c(n1)n(C1CCOCC1)c(=O)n2C [AZD7648] + O=C(c1cc(Cc2n[nH]c(=O)c3ccccc23)ccc1F)N1CCN(C(=O)C2CC2)CC1 [Olaparib] (first compound max 10 µM, 7x7, partner max 10 µM)	-0.0373
CC1(C)CCC(CN2CCN(c3ccc(C(=O)NS(=O)(=O)c4ccc(NCC5CCOCC5)c([N+](=O)[O-])c4)c(Oc4cnc5[nH]ccc5c4)c3)CC2)=C(c2ccc(Cl)cc2)C1 [Venetoclax] + CCN(CCO)CCCOc1ccc2c(Nc3cc(CC(=O)Nc4cccc(F)c4)[nH]n3)ncnc2c1 [AZD2811] (first compound max 1 µM, 7x7, partner max 1 µM)	0.085
C=CCn1c(=O)c2cnc(Nc3ccc(N4CCN(C)CC4)cc3)nc2n1-c1cccc(C(C)(C)O)n1 [AZD1775] + Nc1ccn([C@@H]2O[C@H](CO)[C@@H](O)C2(F)F)c(=O)n1 [Gemcitabine] (first compound max 1 µM, partner max 0.3 µM)	0.0255
